Biological target: UniProt:C7C422
Sequence (C7C422 29-270, looked up, species assumed): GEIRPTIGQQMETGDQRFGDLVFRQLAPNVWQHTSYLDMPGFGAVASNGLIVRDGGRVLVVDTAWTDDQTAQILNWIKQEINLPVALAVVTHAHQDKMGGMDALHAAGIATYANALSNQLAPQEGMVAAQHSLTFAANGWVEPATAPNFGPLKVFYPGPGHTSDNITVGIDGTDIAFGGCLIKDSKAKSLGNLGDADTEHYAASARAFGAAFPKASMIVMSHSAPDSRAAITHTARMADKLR
Assay: MBL inhibition, FC-5 fluorescence assay, NDM-1
Format: biochemical
Conditions: FC-5 cephalosporin substrate, fluorescence; ranges of obtained pIC50; read-out: pIC50 NDM-1 (converted)
metric: IC50

Previously resolved entries follow.
{"compound": "C=C(CC(=O)NCCc1c[nH]cn1)c1cccc2c(-c3ccc(CS(C)(=O)=O)c(F)c3)c(C(=O)O)[nH]c12 [IC-106]", "IC50": "> 10 nM"}
{"compound": "CC(NC(=O)Nc1ccc(CN)cc1)c1cccc2c(-c3ccc(CS(C)(=O)=O)c(F)c3)c(C(=O)O)[nH]c12 (stereo not shown) [IC-102]", "IC50": "1 to 10 nM"}
{"compound": "CC(NC(=O)c1ccc(CN)cc1)c1cccc2c(-c3ccc(CN4CCOCC4)nc3)c(C(=O)O)[nH]c12 (stereo not shown) [IC-11]", "IC50": "< 0.1 nM"}
{"compound": "CC(c1cnn(CCCN)c1)c1cccc2c(-c3ccc(CS(C)(=O)=O)c(F)c3)c(C(=O)O)[nH]c12 (stereo not shown) [IC-5]", "IC50": "0.1 to 1 nM"}
{"compound": "C[C@@H](c1cccc2c(-c3ccc(CS(C)(=O)=O)c(F)c3)c(C(=O)O)[nH]c12)N1C[C@]2(C[C@H](CN)C2)OC1=O [IC-61]", "IC50": "< 0.1 nM"}
{"compound": "C[C@@H](OCc1ccc(CN)cc1)c1cccc2c(-c3ccc(CS(C)(=O)=O)c(Cl)c3)c(C(=O)O)[nH]c12 (single isomer, unassigned) [IC-88]", "IC50": "0.1 to 1 nM"}
{"compound": "C[C@@H](c1cccc2c(-c3ccc(CS(C)(=N)=O)c(F)c3)c(C(=O)O)[nH]c12)N1C[C@]2(C[C@@H](CN)C2)OC1=O (stereo partly shown) [IC-19]", "IC50": "< 0.1 nM"}
{"compound": "C[C@@H](c1cccc2cc(C(=O)O)[nH]c12)N1C[C@]2(C[C@@H](CN)C2)OC1=O [IC-30]", "IC50": "> 10 nM"}
{"compound": "C[C@@H](c1cccc2c(-c3ccc(CS(C)(=O)=O)c(F)c3)c(-c3nnn[nH]3)[nH]c12)N1C[C@]2(C[C@@H](CN)C2)OC1=O [IC-107]", "IC50": "1 to 10 nM"}
{"compound": "C[C@@H](c1cccc2c(-c3c(F)cc(NS(C)(=O)=O)cc3F)c(C(=O)O)[nH]c12)n1cc(CN2CC(N)C2)oc1=O [IC-51]", "IC50": "1 to 10 nM"}

# query: IC50 of entry C[C@@H](c1cccc2c(-c3ccc(NS(C)(=O)=O)c(F)c3)c(C(=O)O)[nH]c12)N1C[C@]2(C[C@@H](CN)C2)OC1=O [IC-14]
< 0.1 nM

Also CC(OCc1cnn[nH]1)c1cccc2c(-c3ccc(CS(C)(=O)=O)c(F)c3)c(C(=O)O)[nH]c12 (stereo not shown) [IC-91] , if possible.
> 10 nM

Also C[C@@H](c1cccc2c(-c3cnn(C)c(=O)c3)c(C(=O)O)[nH]c12)N1C[C@]2(C[C@@H](CN)C2)OC1=O [IC-28] , if possible.
1 to 10 nM

Also C[C@@H](c1cccc2c(-c3cnc(O)c(O)c3)c(C(=O)O)[nH]c12)N1C[C@]2(C[C@@H](CN)C2)OC1=O [IC-29] , if possible.
> 10 nM

Also C[C@@H](c1cccc2c(-c3cc[nH]c(=O)c3)c(C(=O)O)[nH]c12)n1cc(CN2CC(N)C2)oc1=O [IC-54] , if possible.
0.1 to 1 nM
